Numbers sourced from patent US20200339680A1.

molecular target: T1, human TMEM106B (human, UniProt Q9NUM4 2-274); assay: FACS A549 1 ug/ml
T1 construct: full-length, transiently expressed on HEK293 cells, or natively expressed on HeLa, U251 and A549 cells (the cell is named under assay); also the source of the Pepscan peptides; also called huTMEM106B; huTMEM
OBSERVED PROPERTY: MFI (MFI)

binder="TM-5 (antibody, V domains shown) VH: QVQLQQSGTELARPGASVKVSCKASGYIFTTYGITWVKQRGGQGLEWIGEIYPRSDNTYYNEKFKDKATLTADKSSSTAYMELRSLTSEDSAVYFCARSKGSGTGDYWGQGTTVTVSS VL: DIQMTQSPASLSASVGETVTITCRASENIYIYLAWYQQKQGKTPQLLVYNGKMLAENVPSRFSGSGSGTQFSLKINSLQPEDFGSYYCQHHYGSPPAFGAGTKLELK" numeric_result=1970
binder="TM-31 (antibody, V domains shown, mouse IgG (hybridoma)) VH: QVQLQQSGAELAKPGASVKVSCKASGYTFISYWMNWVKQRPGQGLEWIGYINPTSGYTRYNQKFKDKATLTADKSSSTAYMQLSSLTYEDSAVYYCARSPPTVVLIGYFDYWGQGTTLTVSS VL: DIKMTQSPSSMYASLGERVTFTCKASQDINSYLSWFQQKPGKSPKTLIYRGNGLVDGVPSRFSGSGSGQDYSLTISSLEYEDMGIYYCLQYDEFPFTFASGTKLEIK" numeric_result=403
binder="TM-17 (antibody, V domains shown) VH: QVQLQQSGAELIRPGTSVKVSCKASGYAFTDYLIEWVKQRPGQGLEWIGVINPGSGGTNYNEKFKGKAKLTADKSSSTAYMQLSSLTSEDSAVYFCVRSSYGVYVAYPMDYWGQGTSVTVSS VL: DIQMTQSPSSLSASLGERVSLTCRASQDIGSNLNWLQQEPDGTIKRLIYATSSLDSGVPKRFSGSRSGSDYSLTISSLESEDFVDYYCLQYASSPRTFGGGTKLEIK" numeric_result=379
binder="TM-7 (antibody, V domains shown) VH: EVQLQQSGPVLVKPGPPVKISCKASGFTFTDYYIHWVKLSHGKSLEWIGLVYPYNGDTDYNQKFKGKATLTVDTSSSTAYMELNSLTSEDSAVYYCARTYYANSPDYWGQGTTVTVSS VL: DIVMTQSPSSLSVSAGEKVTMSCKSSQSLLNSGNQRNYLAWYQQKPGQPPKLLIYGASTRESGVPDRFTGSGSGTDFTLTISNVQAEDLAVYYCQNDHSYPLTFGAGTKLELK" numeric_result=883
binder="TM-50 (antibody, V domains shown, mouse IgG (hybridoma)) VH: QVQLKESGPVLVAPSQSLSITCTVSGFSLTNYGVHWVRQPPGKGLEWLGVIWAGGNTNYNSALMSRLSISKDNSKSQVFLKMNSLQTDDTAMYYCAKEAKLLRSYAMDYWGQGTLVTVSA VL: DVQMTQTTSSLSASLGDRVTISCRASQDINNYLYWYQQKPDGTVKLLIYYTSMLHSGVPSRFSGSGSGTDYSLTISNLEQEDIATYFCQQGSTLMYTFGGGTKLEIK" numeric_result=381
binder="TM-19 (antibody, V domains shown) VH: DVQLQQSGAELVRPGASVKLSCTASGFNIKDYYMYWVKQRPEQGLEWIGRIDPEDGDTENAPKFRGMATMTADTSSNTAYLQLNSLTSEDTAVYYCTTRIGNLYHVMDYWGHGTSVTVSS VL: DVLMTQTPLSLPVSLGDQASISCRSSQSIVHSNGNTYLEWYLQKPGQAPKLLIDKVFNRFSGVPDRFSGSGSGTDFTLKISRVEAEDLGVYYCFQGSHVPFTFGSGTKLEIK" numeric_result=3640
binder="TM-48 (antibody, V domains shown) VH: QVQLQQSGPELVKPGASVKLSCKASGYTFTSYDINWVKQRPGQGLEWIGWIYPRDGNTQYIEKLKGKATLTVDTSSSTAYMELHSLTSEDSAVYFCARWIFYAMDYWGQGTSVTVSS VL: DVLMTQTPLSLPVSLGNQASISCRSSQSIVHGNGNTYLEWYLQKPGQSPKLLIYKVSNRFSGVPDRFSGSGSGTDFTLKISRVEAEDLGVYYCFQGSHLPYTFGGGTKLEIK" numeric_result=1580
binder="TM-33 (antibody, V domains shown, mouse IgG (hybridoma)) VH: EFQLQQSGPELVKPGASVKISCKASGYSFTDYNMNWVKQSNGKSLEWIGVINPNYGTTSYNQKFKGKATLTVDQSSSTAYMQLNSLTSEDSAVYYCASSYWGQGTLVTVSA VL: DIVMTQSQKFMSTTVGDRVSITCKASQNVGTAVAWYQQKPGQSPKLLIYSASNRYTGVPDRFTGSGSGTDFTLTISNMQSEDLADYFCQQYSSYPYTFGGGTKLEIK" numeric_result=366
binder="TM-42 (antibody, V domains shown) VH: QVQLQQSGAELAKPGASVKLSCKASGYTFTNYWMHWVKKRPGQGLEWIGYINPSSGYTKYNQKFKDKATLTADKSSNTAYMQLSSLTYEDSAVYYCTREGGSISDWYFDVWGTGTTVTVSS VL: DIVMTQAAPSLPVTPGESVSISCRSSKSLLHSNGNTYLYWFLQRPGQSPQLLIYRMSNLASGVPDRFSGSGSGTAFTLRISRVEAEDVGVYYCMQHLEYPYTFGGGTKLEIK" numeric_result=1780
binder="TM-52 (antibody, V domains shown, mouse IgG (hybridoma)) VH: QVQLQQPGAELVKPGASVKLSCKASGYTFTNYWMHWVKQRPGQGLDWIGNIDPSDSETHYNQKFKDKATLTVDKVSSTAYMQLSSLTSEDSAVYYCARRGYYGRSPFAYWGQGTLVTVSA VL: ENVLTQSPAIMSASPGEKVTMTCSASSSVSYMHWYQQKSNTSPKLWIYDTSKLASGVPGRFSGSGSGNSYSLTISSAEAEDVATYYCFQGSGYPLTFGAGTKLELK" numeric_result=401
